test: Cytotoxicity against human Raji cells assessed as cell viability at 1000 molar ratio after 48 hrs by trypan blue staining method; assay type: cell-based; conditions: read-out: Activity
readout-type: viability at 48 h, 1000 molar ratio

INSERT INTO measurements (structure_smiles, result) VALUES
  ('C=C(C)[C@@H]1CC[C@]2(C(=O)O)CC[C@]3(C)[C@H](CC[C@@H]4[C@@]5(C)CC[C@H](OC(=O)/C=C/C=C/C)C(C)(C)[C@@H]5CC[C@]43C)[C@@H]12', '70%'),
  ('C=C(C)[C@@H]1CC[C@]2(C(=O)O)CC[C@]3(C)[C@H](CC[C@@H]4[C@@]5(C)CC[C@H](OC(=O)C=C(C)C)C(C)(C)[C@@H]5CC[C@]43C)[C@@H]12', '70%'),
  ('C=C(C)[C@@H]1CC[C@]2(C(=O)O)CC[C@]3(C)[C@H](CC[C@@H]4[C@@]5(C)CC[C@H](OC(=O)C[C@H](C)C(=O)O)C(C)(C)[C@@H]5CC[C@]43C)[C@@H]12', '60%');
